Assign pKi to each entry below.
# TARGET_ENTITY: α1A-AR (Rattus norvegicus, UniProt P43140)
# Construct: expressed in transfected cells; host or cells: COS-1
# Sequence (P43140 1-466): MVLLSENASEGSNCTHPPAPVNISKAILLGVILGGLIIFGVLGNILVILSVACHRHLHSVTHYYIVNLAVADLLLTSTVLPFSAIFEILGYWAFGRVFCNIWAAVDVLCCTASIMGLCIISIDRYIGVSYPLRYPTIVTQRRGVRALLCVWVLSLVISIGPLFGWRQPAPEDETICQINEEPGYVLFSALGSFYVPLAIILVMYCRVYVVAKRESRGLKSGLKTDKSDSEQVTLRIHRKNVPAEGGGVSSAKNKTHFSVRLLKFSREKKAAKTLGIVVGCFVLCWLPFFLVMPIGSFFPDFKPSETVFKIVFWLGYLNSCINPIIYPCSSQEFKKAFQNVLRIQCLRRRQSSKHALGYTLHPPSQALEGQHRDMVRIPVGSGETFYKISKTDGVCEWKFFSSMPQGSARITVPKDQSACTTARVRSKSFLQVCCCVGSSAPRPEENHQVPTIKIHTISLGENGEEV
# ASSAY_REMARKS: [3H]Prazosin competition/saturation binding on COS-1 membranes expressing α1A-AR
# Parameters: species or system rodent
# SETTINGS: [3H]Prazosin 200 pM, COS-1 membranes; antilog of mean pKi, Cheng-Prusoff; read-out: Ki α1A-AR
// returns pKi (minus log10 of molar concentration), number only

### Prompt I am curious: what pKi value has been reported for "COc1cccc(C=CCN2CCN(c3cccc(C(F)(F)F)c3)CC2)c1" ?
### Response 6.31

### Prompt Queued: Cc1ccc(C)c(N2CCN(CC(O)COC(C)(C)C)CC2)c1 (stereo not drawn)
### Response 5.93

### Prompt And CN(C)CC(C(=O)c1ccc(Br)cc1)C(Br)c1ccccc1 (stereo not drawn) ?
### Response 4.69

### Prompt Please answer likewise for CCCCCCCCN(CCCCCCCC)CC(O)c1ccccc1Cl (stereo not drawn)
### Response 4.34

### Prompt Queued: "CN(C)c1ccc(CN2CCCN(Cc3ccc(N(C)C)cc3)C2c2cc(Cl)ccc2O)cc1"
### Response 4.61

### Prompt Here is the next compound: CCCCC(O)CN1CCC(Cc2ccccc2)CC1 (stereo not drawn)
### Response 5.28

### Prompt Now consider COc1cc2c(cc1OC)C1CC(C)=C(c3ccccc3)CN1CC2 (stereo not drawn) .
### Response 5.70

### Prompt Do the same for CCN(Cc1ccccc1)CC(O)c1cccc(Cl)c1 (stereo not drawn) please
### Response 4.82

### Prompt Another compound to check: CCCCN(Cc1ccc(N(CC)CC)cc1)CC(O)c1ccc(Cl)cc1 (stereo not drawn)
### Response 4.34
